Tested on: Staph. aureus
EXPERIMENT_SUMMARY: Expanded Spectrum MIC (Table II)
Assay type: cell-based
EXPERIMENTAL_CONTEXT: Staphylococcus aureus, strain S225
Below, each entry is listed with its recorded MIC.

Recorded results for 5 compounds are shown here.
# COMPOUND, RECORDED_MEASUREMENT
measured = [
    ("CC1=C(C(=O)O)N2C(=O)C(NC(=O)[C@H](N)c3csc4cccc(F)c34)C2SC1 (stereo partly drawn)", "4 µg/mL"),
    ("CC1=C(C(=O)O)N2C(=O)C(NC(=O)[C@H](N)c3csc4cc(F)ccc34)C2SC1 (stereo partly drawn)", "1 µg/mL"),
    ("CC1=C(C(=O)O)N2C(=O)C(NC(=O)[C@H](N)c3csc4ccc(F)cc34)C2SC1 (stereo partly drawn)", "1 µg/mL"),
    ("CON=C(C(=O)NC1C(=O)N2C(C(=O)O)=C(C)CSC12)c1csc2cc(OC)ccc12 (stereo not drawn)", "2 µg/mL"),
    ("CC1=C(C(=O)O)N2C(=O)C(NC(=O)[C@H](N)c3csc4c(F)cccc34)C2SC1 (stereo partly drawn)", "2 µg/mL"),
]

Checklist item: MIC tested on Staph. aureus, entry CC1=C(C(=O)O)N2C(=O)C(NC(=O)C(N)c3csc4ccccc34)C2SC1 (stereo not drawn) , value?
1 µg/mL

###

Tested on: Bacteroides fragilis
EXPERIMENT_SUMMARY: Susceptibility of Anaerobic Bacteroides Isolates by the Agar-Dilution Method (Table III)
Type: cell-based
EXPERIMENTAL_CONTEXT: 24 h, strain 9, readings 24 hrs. after incubation
RESULT_TYPE: MIC
# answer = value followed by unit

# COMPOUND, MIC
measured = [
    ("CC1=C(C(=O)O)N2C(=O)C(NC(=O)[C@H](N)c3csc4ccc(F)cc34)C2SC1 (stereo partly drawn) [Ex. 18]", "8 µg/mL"),
]

Query: MIC; subject: CC1=C(C(=O)O)N2C(=O)C(NC(=O)C(N)c3csc4ccccc34)C2SC1 (stereo not drawn) [Ex. 9]
4 µg/mL

What does the record list as MIC for CC1=C(C(=O)O)N2C(=O)C(NC(=O)[C@H](N)c3csc4cc(F)ccc34)C2SC1 (stereo partly drawn) [Ex. 17] ?
4 µg/mL

GET /values?readout=MIC&item= CO[C@@]1(NC(=O)C(C(=O)O)c2ccc(O)cc2)C(=O)N2C(C(=O)O)=C(CSc3nnnn3C)CO[C@@H]21 (stereo partly drawn) [moxalactam, reference compound]
0.5 µg/mL

For the compound CC1=C(C(=O)O)N2C(=O)C(NC(=O)[C@H](N)c3csc4c(F)cccc34)C2SC1 (stereo partly drawn) [Ex. 20] , what MIC is on record?
16 µg/mL

Reported MIC, compound CC1=C(C(=O)O)N2C(=O)C(NC(=O)[C@H](N)c3csc4cccc(F)c34)C2SC1 (stereo partly drawn) [Ex. 19] : ____
8 µg/mL

###

System: E. coli
EXPERIMENT_SUMMARY: Agar Dilution MIC (Table I)
Assay type: cell-based
EXPERIMENTAL_CONTEXT: Escherichia coli, strain EC14
// values below are reported MIC
Expressed in µg/mL, but write only the number.

# COMPOUND, TARGET, RESULT_TYPE, RECORDED_MEASUREMENT
data = [
    ("CC1=C(C(=O)O)N2C(=O)C(NC(=O)C(N)c3csc4ccccc34)C2SC1 (centres unmarked)", "E. coli", "MIC", 32),
    ("CC1=C(C(=O)O)N2C(=O)C(NC(=O)[C@H](N)c3csc4cccc(F)c34)C2SC1 (some centres unmarked)", "E. coli", "MIC", 128),
    ("C=CC1=C(C(=O)O)N2C(=O)C(NC(=O)[C@H](N)c3csc4ccccc34)C2SC1 (some centres unmarked)", "E. coli", "MIC", 128),
    ("CC1=C(C(=O)O)N2C(=O)C(NC(=O)[C@@H](N)c3csc4ccc(Cl)cc34)C2SC1 (some centres unmarked) [Ex. 38A]", "E. coli", "MIC", 64),
]

Quick one: MIC of CC1(C)S[C@@H]2[C@H](NC(=O)[C@H](N)c3ccccc3)C(=O)N2[C@H]1C(=O)O [Ampicillin, reference compound] ?
4

// query MIC value for entry CC1=C(C(=O)O)N2C(=O)C(NC(=O)[C@H](N)c3csc4ccc(Cl)cc34)C2SC1 (some centres unmarked) [Ex. 38B]
64

Consider the compound CC1=C(C(=O)O)N2C(=O)C(NC(=O)[C@@H](N)c3csc4cccc(Cl)c34)C2SC1 (some centres unmarked) [Ex. 36A] and give its measured MIC.
128

Look at this compound and give its reported MIC. CON=C(C(=O)NC1C(=O)N2C(C(=O)O)=C(C)CSC12)c1csc2cc(OC)ccc12 (centres unmarked)
64
